system: A549-ACE2 infected with SARS-CoV-2; test: morphology score (similarity to uninfected cells); higher = more like uninfected cells; conditions: 0.3 µM; 24 h
# maps each entry to its morphology score
Hey, just send me the number, nothing else.

Cn1cc(-c2cnn3c(N)c(Br)c([C@@H]4CCCNC4)nc23)cn1 | -0.17
CN(C)C[C@H](O)Cn1c2ccc(Br)cc2c2cc(Br)ccc21 (racemic) [wiskostatin] | 0.05
CC(CN1c2ccccc2Sc2ccccc21)N(C)C (centres undefined) [promethazine] | 0.09

// next item, morphology score requested
Field morphology score (A549-ACE2 infected with SARS-CoV-2), entry c1cc(CN2CCCCC2)cc(OCCCNc2nc3ccccc3s2)c1 [zolantidine] : -0.12
